Target: ENPP1 (Homo sapiens, UniProt P22413)
Assay: ENPP1 enzyme assay with AMP-pNP substrate (hydrolysis of ATP analog)
Format: biochemical
Conditions: AMP-pNP substrate (ATP analog); Ki from IC50 by Cheng-Prusoff; read-out: ENPP1 Inhibition _AMP-pNP: Ki
Here the recorded Ki is given for each entry.

compound="NS(=O)(=O)N1CCc2ccc(-c3ccnc4cc(F)ccc34)cc2C1 [Example 311]" measured_endpoint=Ki value="> 1000 nM"
compound="COc1ccc2c(-c3ccc4c(c3F)CN(S(N)(=O)=O)CC4)ccnc2c1 [Example 410]" measured_endpoint=Ki value="100 to 1000 nM"
compound="NS(=O)(=O)c1ccc(CNc2ncnc3cc(F)ccc23)cc1 [Example 304]" measured_endpoint=Ki value="> 1000 nM"

Input: Using the record for COc1cc2ncnc(NC(C)c3ccc(NS(N)(=O)=O)cc3)c2cc1OC (stereo not drawn) [Example 140] , state its measured Ki.
Output: 100 to 1000 nM

Input: Report measured Ki; entry is COc1ccc2c(-c3ccc(CNS(N)(=O)=O)cc3)c(C(F)(F)F)cnc2c1 [Example 386]
Output: 100 to 1000 nM

Input: For Cn1c(=O)[nH]c2ncnc(N3CCC(CCNS(N)(=O)=O)CC3)c21 [Example 141] , write its Ki.
Output: > 1000 nM

Input: Give Ki for COc1ccc2c(-c3ccc(CN)cc3)c(C#N)cnc2c1 [Example 277]
Output: > 1000 nM

Input: Provide measured Ki value, entry: COc1ccc2c(Oc3ccc(NS(N)(=O)=O)cc3C(F)(F)F)ccnc2c1 [Example 317]
Output: > 1000 nM

Input: Name the recorded Ki of the item COc1ccc2c(Oc3ccc(NS(N)(=O)=O)cc3F)ccnc2c1 [Example 71] in your answer.
Output: < 100 nM

* * *

Target: ENPP1 (Homo sapiens)
Sequence (P22413 1-925): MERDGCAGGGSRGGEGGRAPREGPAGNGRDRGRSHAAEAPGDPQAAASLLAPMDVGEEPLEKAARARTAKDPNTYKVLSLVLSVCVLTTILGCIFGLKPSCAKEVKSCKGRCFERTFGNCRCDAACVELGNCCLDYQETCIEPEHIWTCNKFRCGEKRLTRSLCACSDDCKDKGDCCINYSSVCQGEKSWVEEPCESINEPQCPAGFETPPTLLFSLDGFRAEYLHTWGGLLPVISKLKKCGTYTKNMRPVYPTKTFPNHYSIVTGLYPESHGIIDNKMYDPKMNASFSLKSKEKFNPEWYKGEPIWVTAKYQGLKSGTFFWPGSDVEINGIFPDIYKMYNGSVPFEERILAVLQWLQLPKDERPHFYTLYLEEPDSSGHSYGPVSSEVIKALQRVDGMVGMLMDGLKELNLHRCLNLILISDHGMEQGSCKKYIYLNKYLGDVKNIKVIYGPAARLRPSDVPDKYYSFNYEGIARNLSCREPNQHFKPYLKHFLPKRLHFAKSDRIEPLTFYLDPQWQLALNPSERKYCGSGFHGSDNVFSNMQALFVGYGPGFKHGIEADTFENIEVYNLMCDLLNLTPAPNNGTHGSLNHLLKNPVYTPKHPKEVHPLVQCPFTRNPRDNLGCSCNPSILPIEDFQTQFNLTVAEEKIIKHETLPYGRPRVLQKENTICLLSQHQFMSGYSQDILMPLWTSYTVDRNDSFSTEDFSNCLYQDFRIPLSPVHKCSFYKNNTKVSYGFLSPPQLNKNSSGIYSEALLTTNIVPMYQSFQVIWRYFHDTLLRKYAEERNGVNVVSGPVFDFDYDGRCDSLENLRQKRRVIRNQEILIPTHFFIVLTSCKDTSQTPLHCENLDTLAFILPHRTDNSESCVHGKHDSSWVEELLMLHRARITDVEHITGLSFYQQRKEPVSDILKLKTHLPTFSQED
Experiment: ENPP1 enzyme assay with AMP-pNP substrate (hydrolysis of ATP analog)
Assay type: biochemical
Details: AMP-pNP substrate (ATP analog); Ki from IC50 by Cheng-Prusoff; read-out: ENPP1 Inhibition _AMP-pNP: Ki
pKi: −log10 of the molar value.
pKi by entry:

Worked examples follow.
compound="COc1ccc2ncnc(-c3ccc(CNS(N)(=O)=O)cc3)c2c1 [Example 264]" value="< 6.00"
compound="COc1ccc2c(Oc3ccc(NS(N)(=O)=O)c(F)c3)ccnc2c1 [Example 297]" value="6.00 to 7.00"
compound="COc1cc2ncnc(NC(C)c3ccc(NS(N)(=O)=O)cc3)c2cc1OC (stereo in doubt) [Example 253]" value="6.00 to 7.00"
compound="COc1ccc2c(Oc3ccc(CS(N)(=O)=O)cc3)ccnc2c1 [Example 312]" value="6.00 to 7.00"
compound="COc1cc2nccc(N3CC4CN(S(N)(=O)=O)CC4C3)c2cc1OC (stereo not drawn) [Example 202]" value="6.00 to 7.00"

Input: Identify measured pKi corresponding to COc1ccc2c(-c3ccc(CNS(N)(=O)=O)cc3)ncnc2c1 [Example 226]
Output: 6.00 to 7.00

Input: Query pKi for NS(=O)(=O)N1CCC2(CCN(c3ccnc4cc(OC(F)F)ccc34)CC2)C1 [Example 265]
Output: < 6.00

Input: Could you please provide reported pKi for COc1cc2ncnc(NCc3ccc(C(=O)NO)cc3)c2cc1OC [Example 196] ? Thanks!
Output: < 6.00

Input: Give me measured pKi, please, for this compound: COc1cc2nccc(Oc3ccc(NS(N)(=O)=O)cc3F)c2cc1OC [Example 201]
Output: 6.00 to 7.00

* * *

Target: ENPP1 (Homo sapiens, UniProt P22413)
Experiment: Indirect quantitation of 2',3'-cGAMP hydrolysis (AMP-Glo Assay kit)
Format: biochemical
Conditions: cGAMP substrate; Ki from IC50 by Cheng-Prusoff; read-out: ENPP1 Inhibition -cGAMP: Ki
pKi: −log10 of the molar value.
Measured endpoint: pKi

# annotated cases, reported pKi shown
record_smiles=COc1ccc2ncc(C#N)c(-c3ccc(CN(C4CC4)S(N)(=O)=O)cc3)c2c1 value="6.00 to 7.00"
record_smiles=COc1ccc2c(Oc3ccc(S(=N)(=O)O)cc3F)ccnc2c1 value="> 7.00"
record_smiles=NS(=O)(=O)NCCC1CCN(c2ncnc3c2cnn3-c2ccccc2)CC1 value="< 6.00"
record_smiles=COc1cc2ncnc(N3CCc4c(cccc4NS(N)(=O)=O)C3)c2cc1OC value="> 7.00"

# input for lookup
Input: Look up and report measured pKi (ENPP1 (Homo sapiens, UniProt P22413)) for the following compound: `COc1ccc2c(-c3ccc(CNS(N)(=O)=O)cc3OC)ccnc2c1`
Output: < 6.00

* * *

Each record here notes measured Substrate Selectivity: Ki_AMP-pNP/Ki_cGAMP.
Biological target: ENPP1 (Homo sapiens, UniProt P22413)
Assay: Substrate selectivity ratio, inhibition of cGAMP hydrolysis versus ATP hydrolysis
Assay type: biochemical
Conditions: ratio Ki AMP-pNP / Ki cGAMP
Experimental: The selectivity ratios for inhibition of cGAMP hydrolysis versus ATP hydrolysis were then calculated as follows: […]
# print the numeric value only

Known Substrate Selectivity: Ki_AMP-pNP/Ki_cGAMP results, listed for orientation:
compound="COc1cc2ncnc(NCc3ccc(S(N)(=O)=O)cc3)c2cc1OC [Example 182]" value=24.7
compound="COc1cc2nccc(Nc3ccc(NS(=O)(=O)c4ccccc4)cc3)c2cc1OC [Example 153]" value=62.9

Input: Kindly indicate its recorded Substrate Selectivity: Ki_AMP-pNP/Ki_cGAMP. Item: COc1cc2ncnc(N3CCN(C(=O)CNS(N)(=O)=O)CC3)c2cc1OC [Example 52]
Output: 58.1

* * *

This section presents compounds with their documented Ki values.
Target: ENPP1 (Homo sapiens, UniProt P22413)
Test: ENPP1 enzyme assay with AMP-pNP substrate (hydrolysis of ATP analog)
Assay type: biochemical
Details: AMP-pNP substrate (ATP analog); Ki from IC50 by Cheng-Prusoff; read-out: ENPP1 Inhibition _AMP-pNP: Ki

Solved cases (5 shown):
record_smiles=COc1cc2nccc(-c3ccc(CNS(N)(=O)=O)cc3)c2cc1F target_of_assay="ENPP1 (Homo sapiens, UniProt P22413)" measured_endpoint=Ki value="100 to 1000 nM"
record_smiles=COc1ccc2c(-c3ccc(CNS(N)(=O)=O)nc3)ccnc2c1 target_of_assay="ENPP1 (Homo sapiens, UniProt P22413)" measured_endpoint=Ki value="100 to 1000 nM"
record_smiles=COc1cc2nccc(N3CCc4cc(NS(N)(=O)=O)ccc43)c2cc1F target_of_assay="ENPP1 (Homo sapiens, UniProt P22413)" measured_endpoint=Ki value="< 100 nM"
record_smiles=COc1cc2nccc(N3CCC(CCNS(=O)(=O)N4CCOCC4)CC3)c2cc1OC target_of_assay="ENPP1 (Homo sapiens, UniProt P22413)" measured_endpoint=Ki value="> 1000 nM"
record_smiles=COc1cc2nccc(-c3ccc(CN(O)C=O)cc3)c2cc1OC target_of_assay="ENPP1 (Homo sapiens, UniProt P22413)" measured_endpoint=Ki value="< 100 nM"

Input: Please look at this compound and report its Ki: `COc1cc2nccc(N3CCC4(CC3)CCN(S(N)(=O)=O)C4)c2cc1OC`
Output: < 100 nM

Input: Please list Ki recorded for the compound `COc1ccc2c(Oc3ccc(NS(N)(=O)=O)c(Cl)c3)ccnc2c1`
Output: 100 to 1000 nM

Input: Write down Ki measured for item `COc1ccc2c(-c3ccc(CN(C4CC4)S(N)(=O)=O)cc3)ccnc2c1`
Output: > 1000 nM

Input: Read off the recorded Ki for `COc1ccc2c(Oc3ccc(S(N)(=O)=O)cc3)c(C(F)(F)F)cnc2c1`
Output: > 1000 nM
